system: P. aeruginosa PAO1; test: MIC by microdilution with PaβN or EGTA, wild-type strain; type: cell-based; details: Pseudomonas aeruginosa, PAO1, PAO1, RPMI, PaβN 50 mg/L; read-out: MIC
metric-name: MIC
Give me the value, and tack the unit on after it.

Below, each entry is followed by its recorded MIC result.
[[record]]
chemical_structure = "CC[C@H]1OC(=O)[C@H](C)C(=O)[C@H](C)[C@@H](O[C@@H]2O[C@H](C)C[C@H](N(C)C)[C@H]2O)[C@](C)(OC)C[C@@H](C)C(=O)[C@H](C)[C@H]2N(CCCCn3cnc(-c4cccnc4)c3)C(=O)O[C@]12C"
value_observed = "4 µg/mL"

[[record]]
chemical_structure = "CC[C@H]1OC(=O)[C@H](C)[C@@H](O[C@H]2C[C@@](C)(OC)[C@@H](O)[C@H](C)O2)[C@H](C)[C@@H](O[C@@H]2O[C@H](C)C[C@H](N(C)C)[C@H]2O)[C@](C)(O)C[C@@H](C)C(=O)[C@H](C)[C@@H](O)[C@]1(C)O"
value_observed = "32 µg/mL"

[[record]]
chemical_structure = "CC[C@H]1OC(=O)[C@H](C)[C@@H](O[C@H]2C[C@@](C)(OC)[C@@H](O)[C@H](C)O2)[C@H](C)[C@@H](O[C@@H]2O[C@H](C)C[C@H](N(C)C)[C@H]2O)[C@](C)(OC)C[C@@H](C)C(=O)[C@H](C)[C@@H](O)[C@]1(C)O"
value_observed = "4 µg/mL"


Could you now look at the following molecule, please?
Data request: I am curious: what MIC value has been reported for `CC[C@H]1OC(=O)[C@H](C)[C@@H](O[C@H]2C[C@@](C)(OC)[C@@H](O)[C@H](C)O2)[C@H](C)[C@@H](O[C@@H]2O[C@H](C)C[C@H](N(C)C)[C@H]2O)[C@](C)(O)C[C@@H](C)CN(C)[C@H](C)[C@@H](O)[C@]1(C)O` ?
Data returned: 4 µg/mL

====

Test system: P. aeruginosa (PA)
Experiment: MIC by microdilution, 36 clinical and laboratory strains with known efflux phenotype
Assay type: cell-based
Details: strain 401, ompH−, MHB
Method: MICs of 36 clinical and laboratory strains of PA with known efflux phenotype are measured by microdilution in cation-adjusted Muller-Hinton broth (CA-MHB) or in RPMI medium (commonly used in eukaryotic cell culture). […] MICs are measured by microdilution in MH broth or in RPMI medium (used for eukaryotic cells culture) supplemented with 10% of fetal calf serum, or in MH broth supplemented by increasing amounts of serum. […]
metric-name: MIC (mg/L)
Quick reminder: number only, in mg/L, skip the unit.

[[record]]
compound = "CC[C@H]1OC(=O)[C@@](C)(F)C(=O)[C@H](C)[C@@H](O[C@@H]2O[C@H](C)C[C@H](N(C)C)[C@H]2O)[C@](C)(OC)C[C@@H](C)C(=O)[C@H](C)[C@H]2N(CCCCn3cc(-c4cccc(N)c4)nn3)C(=O)O[C@]12C [CEM-101, solithromycin]"
value_observed = 2

[[record]]
compound = "CC[C@H]1OC(=O)[C@H](C)[C@@H](O[C@H]2C[C@@](C)(OC)[C@@H](O)[C@H](C)O2)[C@H](C)[C@@H](O[C@@H]2O[C@H](C)C[C@H](N(C)C)[C@H]2O)[C@](C)(O)C[C@@H](C)C(=O)[C@H](C)[C@@H](O)[C@]1(C)O [ERY, erythromycin]"
value_observed = 8


Please turn your attention to the following entry.
Data request: Give its MIC value. Item: CC[C@H]1OC(=O)[C@H](C)C(=O)[C@H](C)[C@@H](O[C@@H]2O[C@H](C)C[C@H](N(C)C)[C@H]2O)[C@](C)(OC)C[C@@H](C)C(=O)[C@H](C)[C@H]2N(CCCCn3cnc(-c4cccnc4)c3)C(=O)O[C@]12C [TEL, telithromycin]
Data returned: 4

====

test system: P. aeruginosa PAO1; experiment: MIC by microdilution with PaβN or EGTA, wild-type strain; assay type: cell-based; conditions: Pseudomonas aeruginosa, PAO1, PAO1, CA-MHB, control conditions (CT)
metric-name: MIC (µg/mL)
Give the quantity in µg/mL, number only.

[[record]]
molecule = "CC[C@H]1OC(=O)[C@H](C)[C@@H](O[C@H]2C[C@@](C)(OC)[C@@H](O)[C@H](C)O2)[C@H](C)[C@@H](O[C@@H]2O[C@H](C)C[C@H](N(C)C)[C@H]2O)[C@](C)(O)C[C@@H](C)CN(C)[C@H](C)[C@@H](O)[C@]1(C)O [AZM, azithromycin]"
metric_name = "MIC"
value_observed = 128

[[record]]
molecule = "CC[C@H]1OC(=O)[C@H](C)[C@@H](O[C@H]2C[C@@](C)(OC)[C@@H](O)[C@H](C)O2)[C@H](C)[C@@H](O[C@@H]2O[C@H](C)C[C@H](N(C)C)[C@H]2O)[C@](C)(O)C[C@@H](C)C(=O)[C@H](C)[C@@H](O)[C@]1(C)O [ERY, erythromycin]"
metric_name = "MIC"
value_observed = 512

[[record]]
molecule = "CC[C@H]1OC(=O)[C@H](C)C(=O)[C@H](C)[C@@H](O[C@@H]2O[C@H](C)C[C@H](N(C)C)[C@H]2O)[C@](C)(OC)C[C@@H](C)C(=O)[C@H](C)[C@H]2N(CCCCn3cnc(-c4cccnc4)c3)C(=O)O[C@]12C [TEL, telithromycin]"
metric_name = "MIC"
value_observed = 128


Data request: API: value(readout= MIC, system= P. aeruginosa PAO1, query= CC[C@H]1OC(=O)[C@H](C)[C@@H](O[C@H]2C[C@@](C)(OC)[C@@H](O)[C@H](C)O2)[C@H](C)[C@@H](O[C@@H]2O[C@H](C)C[C@H](N(C)C)[C@H]2O)[C@](C)(OC)C[C@@H](C)C(=O)[C@H](C)[C@@H](O)[C@]1(C)O [CLR, clarithromycin] )
Data returned: 512

====

system: P. aeruginosa (PA); test: MIC by microdilution, 36 clinical and laboratory strains with known efflux phenotype; assay type: cell-based; details: strain 21, efflux AB+, RPMI
metric-name: MIC (µg/mL)
Write the answer as a number in µg/mL, unit excluded.

Data request: May I ask what MIC has been recorded for CC[C@H]1OC(=O)[C@H](C)[C@@H](O[C@H]2C[C@@](C)(OC)[C@@H](O)[C@H](C)O2)[C@H](C)[C@@H](O[C@@H]2O[C@H](C)C[C@H](N(C)C)[C@H]2O)[C@](C)(O)C[C@@H](C)CN(C)[C@H](C)[C@@H](O)[C@]1(C)O [AZM, azithromycin] ?
Data returned: 2

Data request: Endpoint output: MIC of CC[C@H]1OC(=O)[C@H](C)C(=O)[C@H](C)[C@@H](O[C@@H]2O[C@H](C)C[C@H](N(C)C)[C@H]2O)[C@](C)(OC)C[C@@H](C)C(=O)[C@H](C)[C@H]2N(CCCCn3cnc(-c4cccnc4)c3)C(=O)O[C@]12C [TEL, telithromycin] . Value?
Data returned: 2

Data request: Can you look up the measured MIC of CC[C@H]1OC(=O)[C@H](C)[C@@H](O[C@H]2C[C@@](C)(OC)[C@@H](O)[C@H](C)O2)[C@H](C)[C@@H](O[C@@H]2O[C@H](C)C[C@H](N(C)C)[C@H]2O)[C@](C)(OC)C[C@@H](C)C(=O)[C@H](C)[C@@H](O)[C@]1(C)O [CLR, clarithromycin] for me?
Data returned: 64

====

test system: MRSA strains from CF patients; assay: Microdilution MICs against 40 MRSA strains from CF patients; assay type: cell-based, S. aureus; conditions: Staphylococcus aureus; 40 MRSA strains from CF patients; read-out: MIC90
Below, each entry is listed with its recorded MIC90.
Answer format: numeric, µg/mL implied, no suffix.

[[record]]
chemical_structure = "CCCCCCCCCC(=O)N[C@@H](Cc1c[nH]c2ccccc12)C(=O)N[C@H](CC(N)=O)C(=O)N[C@@H](CC(=O)O)C(=O)N[C@@H]1C(=O)NCC(=O)N[C@@H](CCCN)C(=O)N[C@@H](CC(=O)O)C(=O)N[C@H](C)C(=O)N[C@@H](CC(=O)O)C(=O)NCC(=O)N[C@H](CO)C(=O)N[C@@H]([C@H](C)CC(=O)O)C(=O)N[C@@H](CC(=O)c2ccccc2N)C(=O)O[C@@H]1C"
unit_info = "µg/mL"
value_observed = 1


Now for the molecule whose MIC90 we want.
Data request: Suppose we examine the molecule `CC(=O)NC[C@H]1CN(c2ccc(N3CCOCC3)c(F)c2)C(=O)O1` ; what MIC90 value has been reported?
Data returned: 2

====

Tested on: P. aeruginosa (PA)
Experiment: MIC by microdilution, 36 clinical and laboratory strains with known efflux phenotype
Assay type: cell-based
Conditions: strain 394, efflux XY−, MHB
Protocol: MICs of 36 clinical and laboratory strains of PA with known efflux phenotype are measured by microdilution in cation-adjusted Muller-Hinton broth (CA-MHB) or in RPMI medium (commonly used in eukaryotic cell culture). […] MICs are measured by microdilution in MH broth or in RPMI medium (used for eukaryotic cells culture) supplemented with 10% of fetal calf serum, or in MH broth supplemented by increasing amounts of serum. […]
metric-name: MIC
Include the unit right after the number.

[[record]]
chemical_structure = "CC[C@H]1OC(=O)[C@@](C)(F)C(=O)[C@H](C)[C@@H](O[C@@H]2O[C@H](C)C[C@H](N(C)C)[C@H]2O)[C@](C)(OC)C[C@@H](C)C(=O)[C@H](C)[C@H]2N(CCCCn3cc(-c4cccc(N)c4)nn3)C(=O)O[C@]12C"
value_observed = "32 µg/mL"

[[record]]
chemical_structure = "CC[C@H]1OC(=O)[C@H](C)[C@@H](O[C@H]2C[C@@](C)(OC)[C@@H](O)[C@H](C)O2)[C@H](C)[C@@H](O[C@@H]2O[C@H](C)C[C@H](N(C)C)[C@H]2O)[C@](C)(O)C[C@@H](C)CN(C)[C@H](C)[C@@H](O)[C@]1(C)O"
value_observed = "256 µg/mL"

[[record]]
chemical_structure = "CC[C@H]1OC(=O)[C@H](C)[C@@H](O[C@H]2C[C@@](C)(OC)[C@@H](O)[C@H](C)O2)[C@H](C)[C@@H](O[C@@H]2O[C@H](C)C[C@H](N(C)C)[C@H]2O)[C@](C)(OC)C[C@@H](C)C(=O)[C@H](C)[C@@H](O)[C@]1(C)O"
value_observed = "512 µg/mL"

[[record]]
chemical_structure = "CC[C@H]1OC(=O)[C@H](C)[C@@H](O[C@H]2C[C@@](C)(OC)[C@@H](O)[C@H](C)O2)[C@H](C)[C@@H](O[C@@H]2O[C@H](C)C[C@H](N(C)C)[C@H]2O)[C@](C)(O)C[C@@H](C)C(=O)[C@H](C)[C@@H](O)[C@]1(C)O"
value_observed = "512 µg/mL"


Attention now shifts to the item below.
Data request: If you can, please state the reported MIC value of `CC[C@H]1OC(=O)[C@H](C)C(=O)[C@H](C)[C@@H](O[C@@H]2O[C@H](C)C[C@H](N(C)C)[C@H]2O)[C@](C)(OC)C[C@@H](C)C(=O)[C@H](C)[C@H]2N(CCCCn3cnc(-c4cccnc4)c3)C(=O)O[C@]12C` .
Data returned: 64 µg/mL
